Target: Human CD4 on CD4+CD25+ regulatory T cells of healthy donors (human, UniProt P01730 26-458)
Experiment: cell-based or functional assay
attribute-measured: Avg. % inhibition
Returns: string containing the number followed by the unit.

Some solved entries appear below for comparison.
binder	Avg. % inhibition
HC master LC L98I (antibody, V domains shown) VH: EEQLVESGGGLVKPGGSLRLSCAASGFSFSDCRMYWLRQAPGKGLEWIGVISVKSENYGANYAESVRGRFTISRDDSKNTVYLQMNSLKTEDTAVYYCSASYYRYDVGAWFAYWGQGTLVTVSS VL: DIVMTQSPDSLAVSLGERATINCRASKSVSTSGYSYIYWYQQKPGQPPKLLIYLASILESGVPDRFSGSGSGTDFTLTISSLQAEDVAVYYCQHSREIPWTFGQGTKVEIKR	12.9%
LC master HC Y105W (antibody, V domains shown) VH: EEQLVESGGGLVKPGGSLRLSCAASGFSFSDCRMYWLRQAPGKGLEWIGVISVKSENYGANYAESVRGRFTISRDDSKNTVYLQMNSLKTEDTAVYYCSASYYRWDVGAWFAYWGQGTLVTVSS VL: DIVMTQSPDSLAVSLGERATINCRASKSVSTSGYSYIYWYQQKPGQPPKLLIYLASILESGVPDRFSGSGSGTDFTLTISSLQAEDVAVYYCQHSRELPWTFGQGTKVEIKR	4.8%

Consider the additional binder presented here.
Tell me the measured Avg. % inhibition of BT61 Lot 52690 (antibody, human IgG1, kappa, V domains shown) VH: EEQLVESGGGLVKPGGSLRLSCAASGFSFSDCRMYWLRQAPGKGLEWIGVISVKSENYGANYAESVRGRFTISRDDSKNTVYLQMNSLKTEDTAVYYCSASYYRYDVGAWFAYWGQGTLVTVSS VL: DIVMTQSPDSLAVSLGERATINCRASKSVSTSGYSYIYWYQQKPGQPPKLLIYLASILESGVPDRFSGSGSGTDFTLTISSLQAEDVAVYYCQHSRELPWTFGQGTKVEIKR , please. 26.2%

Origin of measurements: patent US20130004513A1
